Each entry below lists one item and its recorded IC50 value.
Target: pERK1/2 (Thr202/Tyr204), PANC-1 (KRAS G121D) (Homo sapiens, UniProt P01116, G12D)
Construct: pERK1/2 HTRF read-out
Sequence (P01116 1-188 isoform P01116-2 G12D): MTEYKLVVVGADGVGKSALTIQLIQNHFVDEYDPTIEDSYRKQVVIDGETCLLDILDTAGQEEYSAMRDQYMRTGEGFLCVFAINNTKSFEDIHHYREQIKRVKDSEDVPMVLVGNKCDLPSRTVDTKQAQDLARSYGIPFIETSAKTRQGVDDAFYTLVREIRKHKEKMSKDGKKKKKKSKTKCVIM
Assay: Assay of intracellular pERK1/2 (Thr202/Tyr204) phosphorylation in PANC-1 cells (KRAS G12D)
Assay type: cell-based
Conditions: pERK1/2, 2 days, read-out: PANC-1 (KRAS G12D) IC50

COMPOUND: Cc1cc(N)cc(-c2nc3c4c(nc(OC[C@@H]5C[C@@H](F)CN5C)nc4c2F)N(C(C)c2cccnc2N)[C@@H](C)CO3)c1C(F)(F)F (single isomer, unassigned) [Compound 283]
MEASURED_RESULT: > 100 nM

COMPOUND: CC(c1cccnc1N)N1CCOc2nc(-c3cc(N)cc(Cl)c3C(F)(F)F)c(F)c3nc(OC[C@@H]4CCCN4C)nc1c23 (single isomer, unassigned) [Compound 99]
MEASURED_RESULT: > 100 nM

COMPOUND: CCc1c(F)ccc2cc(O)cc(-c3nc4c5c(nc(OC[C@@]67CCCN6C[C@H](F)C7)nc5c3F)N(C(C)c3ccccc3N)[C@@H](C)CO4)c12 (some centres unmarked)
MEASURED_RESULT: > 100 nM

COMPOUND: C#Cc1ccc2[nH]ncc2c1-c1nc2c3c(nc(OC[C@@]45CCCN4C[C@H](F)C5)nc3c1F)N(C(C)c1cccnc1N)CCO2 (some centres unmarked)
MEASURED_RESULT: > 1000 nM

COMPOUND: Cc1c(F)c(N)cc(-c2nc3c4c(nc(OC[C@@]56CCCN5C[C@H](F)C6)nc4c2F)N(C2(c4cccnc4N)CC2)CCO3)c1C(F)(F)F
MEASURED_RESULT: > 100 nM

COMPOUND: Cc1cc2[nH]ncc2c(-c2nc3c4c(nc(O)nc4c2F)N(C(C)c2cccnc2N)CCO3)c1C (centres unmarked)
MEASURED_RESULT: > 1000 nM

For the compound CNc1ncccc1C(C)N1CCOc2nc(-c3cc(N)c(F)c(C)c3C(F)(F)F)c(F)c3nc(OC[C@@]45CCCN4C[C@H](F)C5)nc1c23 (single isomer, unassigned) [Compound 264] , what IC50 is on record?
> 100 nM

For the compound CC(c1cccnc1N)N1c2nc(OC[C@@]34CCCN3C[C@H](F)C4)nc3c(F)c(-c4c(C(F)(F)F)ccc5c4CCCN5)nc(c23)OC[C@@H]1C (single isomer, unassigned; diastereomer 2) [Compound 339] , what IC50 is on record?
> 100 nM

For the compound Cc1cc(N)cc(-c2nc3c4c(nc(OC[C@H]5CCCN5C)nc4c2F)N(C(C)c2cccnc2N)CCO3)c1C(F)(F)F (single isomer, unassigned) [Compound 110] , what IC50 is on record?
> 100 nM

For the compound Cc1c(F)c(N)cc(-c2nc3c4c(nc(OCC56CC(F)CN5CC(F)C6)nc4c2F)N(C(C)c2cccnc2N)CCO3)c1C(F)(F)F (single isomer, unassigned; diastereomer 2) [Compound 242] , what IC50 is on record?
> 100 nM

For the compound Cc1cc(N)cc(-c2nc3c4c(nc(OC[C@@H]5CCCN5)nc4c2F)N(C(C)c2cccnc2N)CCO3)c1C(F)(F)F (single isomer, unassigned) , what IC50 is on record?
> 100 nM
